Below is a list of entries, each paired with its recorded IC50 value.
- Tested on: Target C mRNA
- Test: Splicing RT-qPCR gene panel, Target C canonical junction (CJ) mRNA
- Assay type: cell-based, human
- Setup conditions: Homo sapiens, Tables 4A/4B, read-out: Target C (IC50, decrease in CJ mRNA, gene panel)

Record excerpt, results attached:
Compound	IC50
Cc1cn2cc(NC(=O)c3ccc(N4CC5(CNC5)C4)c4cc(C)oc34)cc(F)c2n1	1 to 10 µM
CCN1CCC(c2ccc(C(=O)Nc3cc(F)c4nc(C)cn4c3)c3oc(C)cc23)CC1	> 10 µM
Cc1cn2c(n1)CCC(NC(=O)c1ccc(N3CCNCC3)c3cn(C)nc13)C2 (stereo not shown)	> 10 µM
COc1c(NC(=O)c2ccc(N3CCNCC3)c3nc(C)nn23)cn2cc(C)nc2c1F	< 0.1 µM
Cc1cn2cc(NC(=O)c3ccc(N4CCC(CN)CC4)c4cn(C)nc34)cc(F)c2n1	> 10 µM

Data request: State its IC50: Cn1cc2ccc(NC(=O)c3ccc(N4CCNCC4)c4cn(C)nc34)cc2n1
Data returned: > 10 µM

Data request: State its IC50: CCn1cc2c(N3CC4(CNC4)C3)ccc(C(=O)Nc3cc(F)c4nc(C)cn4c3)c2n1
Data returned: > 10 µM

Data request: State its IC50: CCn1cc2c(N3CC[C@H](NC)C3)ccc(C(=O)Nc3cc(F)c4nc(C)cn4c3)c2n1
Data returned: > 10 µM

Data request: State its IC50: Cc1cc2nc(NC(=O)c3ccc(N4CCNCC4)c4cn(C)nc34)cc(C)n2n1
Data returned: > 10 µM

====

- Tested on: MYB mRNA
- Test: Splicing RT-qPCR assay, MYB canonical (CJ) and alternative (AJ) junction mRNA
- Type: cell-based, human
- Setup conditions: Homo sapiens, 24 h, A673 or K562 cells, 24 hours compound treatment, RT-qPCR; read-out: MYB CJ (IC50, decrease in canonical junction mRNA)
pIC50: −log10 of the molar value.
Observation type: pIC50

Record excerpt, results attached:
Compound	Observation type	Result
Cc1cn2cc(NC(=O)c3ccc(N4CCNCC4)c4cn(CC5(C)COC5)nc34)cc(F)c2n1	pIC50	< 5.00
Cc1cn2cc(NC(=O)c3ccc(N4CCNCC4)c4cn(C)nc34)cc(C(F)(F)F)c2n1	pIC50	6.00 to 7.00

Data request: State its pIC50: CCn1cc2c(N3CCC(NCC(C)(C)O)CC3)ccc(C(=O)Nc3cc(F)c4nc(C)cn4c3)c2n1
Data returned: 6.00 to 7.00

Data request: State its pIC50: CCn1cc2c(N3CCC(N(C)C)CC3)ccc(C(=O)Nc3cc(F)c4nc(C)cn4c3)c2n1
Data returned: > 7.00

Data request: State its pIC50: Cc1nc2c(F)cc(NC(=O)c3ccc(N4CCNCC4)c4cn(C)nc34)cn2n1
Data returned: > 7.00

Data request: State its pIC50: Cc1cc2c(N3CCNCC3)ccc(C(=O)Nc3ccc4cn(C)nc4c3)c2o1
Data returned: < 5.00

Data request: State its pIC50: COc1c(NC(=O)c2ccc(N3CCNCC3)c3oc(C)nc23)cn2cc(C)nc2c1F
Data returned: > 7.00

Data request: State its pIC50: Cc1cn2cc(NC(=O)c3ccc(N4CCc5[nH]ccc5C4)c4cn(C)nc34)cc(F)c2n1
Data returned: < 5.00

Data request: State its pIC50: Cc1cn2cc(NC(=O)c3ccc(N4CC[C@@H](N)C4)c4cn(C)nc34)cc(F)c2n1
Data returned: > 7.00
